# assayedSystem: Proteasome subunit beta (Trypanosoma cruzi)
# testDetails: Trypanosoma cruzi proteasome chymotrypsin-like activity (TcProtChymo) assay. Note: in the data most compounds retested in dose-response had high values.
# Format: functional
# Parameters: scale not given: direction of the effect not stated beside the values
# particulars: 9.37 µM
Give Percent Effect for every item shown.
Please reply with the bare figure in % and do not write the unit itself.

Report Percent Effect under test system Proteasome subunit beta (Trypanosoma cruzi) for O=C(CC1CCCO1)NCc1ccccc1Cn1cncn1 (stereo unspecified) .
9.39

Report Percent Effect under test system Proteasome subunit beta (Trypanosoma cruzi) for CCN(CC)C(=O)CN(C)C1CCc2ccccc21 (stereo unspecified) .
18.7

Report Percent Effect under test system Proteasome subunit beta (Trypanosoma cruzi) for `CC(=O)NCC(=O)N1CC[C@H](OCC2CC2)[C@@H]1Cc1cccnc1` .
5.47

Report Percent Effect under test system Proteasome subunit beta (Trypanosoma cruzi) for COCC1Cn2nnc(-c3cnn(C)c3)c2CN1Cc1ccc(C)s1 (stereo unspecified) .
-0.0845

Report Percent Effect under test system Proteasome subunit beta (Trypanosoma cruzi) for `Cc1csc(N2CCCN(Cc3noc(C)n3)CC2)n1` .
15.9

Report Percent Effect under test system Proteasome subunit beta (Trypanosoma cruzi) for `Cc1ccc(NS(=O)(=O)CC2=NC(=O)n3cccc3C2=O)cc1` .
3.7

---

# assayedSystem: AMP-activated protein kinase, AMPK (Homo sapiens) (UniProt P54646+O43741+P54619+Q9UGJ0+Q9Y478+Q13131+Q9UGI9)
# testDetails: AMP-dependent Kinase enzyme assay. An in vitro enzyme assay that detects ADP turnover that is directly proportional to AMPK activity. This uses naive AMPK that is activated during the assay with MK-8722
# Assay type: functional
# Parameters: scale not given: direction of the effect not stated beside the values
# particulars: 30 µM
measuredMetric: Percent Effect (%)
Please reply with the bare figure in % and do not write the unit itself.

Please give measured Percent Effect of the following entry: `COc1cccc(CN(C)S(=O)(=O)N2CCOCC2)c1`
1.96

Please give measured Percent Effect of the following entry: `O=C(COC[C@H]1CC[C@H]2[C@H](CCN2c2ncccn2)O1)N1CCCC1`
-1.6

Please give measured Percent Effect of the following entry: `O=C(c1ccsc1)N1CCOC2(CCN(Cc3cccnc3)CC2)C1`
3.67

Please give measured Percent Effect of the following entry: COCC1c2nnn(CC3CC3)c2CCN1C(=O)c1cccc(F)c1 (stereo unspecified)
-4.62

Please give measured Percent Effect of the following entry: `Cc1nc(N2CCN(C(=O)c3ccc(O)cc3)CC2)c2cnn(C)c2n1`
-5.77

Please give measured Percent Effect of the following entry: Cc1nnc(C2Cc3ccccc3CN2Cc2ncc(C(C)(C)C)o2)o1 (stereo unspecified)
3.3

---

# Species: Homo sapiens
# testDetails: To identify inhibition of the IFN signalling (Jak-Stat) pathway via expression of an eGFP reporter gene under the control of an IFN-stimulated response element (ISRE) containing MxA promoter.
# Format: functional
# Set-up: scale not given: direction of the effect not stated beside the values
# particulars: 30 µM
Give Percent Effect for every item shown.
Please reply with the bare figure in % and do not write the unit itself.

Please give measured Percent Effect of the following entry: `Cc1ccc(C(=O)N(C)Cc2cscn2)c(=O)[nH]1`
1.38

Please give measured Percent Effect of the following entry: `CCc1nc(NCC(=O)N2CCOCC2)c2c(n1)c(C)nn2CC`
-5.15

Please give measured Percent Effect of the following entry: `O=C(c1cnco1)N1C[C@@H]2CC[C@H](Oc3ccccc3F)[C@@H]2C1`
25.5

Please give measured Percent Effect of the following entry: `CC(C)NC(=O)Cn1cc(-c2ccccc2)cn1`
-2.22

Please give measured Percent Effect of the following entry: O=C(c1cnc(C2CC2)s1)N1CCCC(n2cccn2)C1 (centres undefined)
21

Please give measured Percent Effect of the following entry: `O=c1cc2c(nn1CN1CCN(c3ccccc3)CC1)CCC2`
11.5

Please give measured Percent Effect of the following entry: `CN1CCC(c2cccc(Cc3ccc(F)cc3)n2)CC1`
2.47

Please give measured Percent Effect of the following entry: COc1ccc(CN2CCC3(CC(=O)N(c4cncnc4)C3)C2)cc1 (centres undefined)
5.2

Please give measured Percent Effect of the following entry: Cc1cc(C(=O)NC2CCCN(c3ccccc3)C2=O)on1 (centres undefined)
5.07

Please give measured Percent Effect of the following entry: Cc1cc(NC(=O)CN2CCCC2c2noc(C3CC3)n2)no1 (centres undefined)
5.99

Please give measured Percent Effect of the following entry: `COCc1c(C(=O)O)nnn1Cc1cccc(C(F)(F)F)c1`
5.79

Please give measured Percent Effect of the following entry: CCc1nccn1C1CCCN(C(=O)c2cn3cccnc3n2)C1 (centres undefined)
-7.1

Please give measured Percent Effect of the following entry: Cc1cc(CN2CCCC2c2noc(C3CC3)n2)c2ccccc2n1 (centres undefined)
94.8

Please give measured Percent Effect of the following entry: `Cn1nccc1C1CCN(Cc2csc(-c3ncccn3)n2)CC1`
13.2

Please give measured Percent Effect of the following entry: CCc1nc(C2CCCN2CC(=O)Nc2sc(C)c(C)c2C)no1 (centres undefined)
11.2

Please give measured Percent Effect of the following entry: `COc1cc(N2C[C@@H]3COC[C@]3(COc3ccc(C#N)cn3)C2)ncn1`
35.9

Please give measured Percent Effect of the following entry: `CCOCCN1CCN(Cc2cccc(C(=O)N(C)C)c2)CC1`
2.86

Please give measured Percent Effect of the following entry: `CN(C)C(=O)c1cnc2n1CCN(Cc1ccccc1)C2`
0.000462

Please give measured Percent Effect of the following entry: c1cnnc(N2CCCC2CNCc2cnc(N3CCCC3)nc2)c1 (centres undefined)
16.1

Please give measured Percent Effect of the following entry: O=C(c1ccc(F)c(F)c1)N1CCCC(Nc2ccc(F)cc2)C1 (centres undefined)
19.7

Please give measured Percent Effect of the following entry: Cc1nc(CN2CCCC(NCc3c(C)nc4sccn34)C2)no1 (centres undefined)
45.2

Please give measured Percent Effect of the following entry: NC(=O)c1ccc(S(=O)(=O)NC2CCN(Cc3ccccc3)C2=O)cc1 (centres undefined)
2.7

Please give measured Percent Effect of the following entry: `CCc1nnc2n1CCN(CCS(=O)(=O)c1ccccc1)C2`
4.97

Please give measured Percent Effect of the following entry: `Cc1ccc(CN(Cc2c[nH]cn2)C2CC(C)(C)NC(C)(C)C2)o1`
12.1

---

Give Percent Effect for every item shown.
# assayedSystem: Sialic acid-binding Ig-like lectin 9 (Homo sapiens) (UniProt Q9Y336)
# Sequence (Q9Y336 whole entry): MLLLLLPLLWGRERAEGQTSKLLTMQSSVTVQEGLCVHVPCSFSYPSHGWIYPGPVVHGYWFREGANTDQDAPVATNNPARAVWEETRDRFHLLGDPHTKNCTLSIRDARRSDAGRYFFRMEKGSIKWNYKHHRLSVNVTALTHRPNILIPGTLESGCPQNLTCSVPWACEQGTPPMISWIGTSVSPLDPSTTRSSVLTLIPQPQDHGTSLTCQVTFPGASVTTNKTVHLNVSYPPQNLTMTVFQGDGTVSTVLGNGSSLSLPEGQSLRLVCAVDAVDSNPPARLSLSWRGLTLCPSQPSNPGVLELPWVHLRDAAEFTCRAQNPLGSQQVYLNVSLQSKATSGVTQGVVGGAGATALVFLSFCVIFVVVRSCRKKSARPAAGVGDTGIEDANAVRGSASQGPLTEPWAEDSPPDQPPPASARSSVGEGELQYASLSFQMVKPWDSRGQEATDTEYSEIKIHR
# testDetails: Hs-Siglec9 ALPHAscreen SOP 20170721
# Parameters: scale not given: direction of the effect not stated beside the values
# particulars: 10 µM
Please reply with the bare figure in % and do not write the unit itself.

Please give measured Percent Effect of the following entry: O=C(NCC1CC1)C1=NOC2(CCN(Cc3ccc4c(c3)OCO4)C2)C1 (stereo unspecified)
5

Please give measured Percent Effect of the following entry: CCc1nccn1C1CCCN(C(=O)c2ccc3[nH]c(=O)[nH]c3c2)C1 (stereo unspecified)
18.9

Please give measured Percent Effect of the following entry: `COc1ccccc1[C@@H]1CN(Cc2cc(C(C)(C)C)[nH]n2)C[C@H]1C(=O)O`
2.73

Please give measured Percent Effect of the following entry: Cn1ccc(C(=O)NC2CCC23CCN(C(=O)c2ccncc2)CC3)c1 (stereo unspecified)
16.4

Please give measured Percent Effect of the following entry: CNC(=O)CCc1cc(C)nc(C2CCCN2)n1 (stereo unspecified)
2.54

Please give measured Percent Effect of the following entry: `COc1ccc(CN2CCC(O)CC2)c(OC)c1`
2.82
